Source of measurements: PubChem BioAssay

Exercise: for every item that follows, state its recorded inhibition.
- subject.of.test: Pantothenate synthetase (Mycobacterium tuberculosis (strain ATCC 25618 / H37Rv))
- protocol.description: Coupled enzyme confirmation of inhibitors against recombinant Mtb PanC (AID 375);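 also: 0% = full reaction with vehicle and 100% = no enzyme background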
- condition.label: coupled enzyme assay; at 10 µM, hits give high values
The source made the active and inactive calls. No rule for the calls is given here.

Worked cases, inhibition given:
>  <compound>
Cc1cc(C)c2cc(CN(CC3CCCO3)C(=O)NC3CCCCC3)c(=O)[nH]c2c1 (configuration not stated)

>  <inhibition>
0% (inactive)

$$$$
>  <compound>
CCOC(=O)c1sc(NC(=O)c2noc3c2CCCC3)c(C(=O)OCC)c1C

>  <inhibition>
0% (inactive)

$$$$
>  <compound>
CC(=O)c1ccc(NC2OC(C)C(O)C(O)C2O)cc1 (configuration not stated)

>  <inhibition>
3% (inactive)

$$$$
>  <compound>
O=C(c1csc2ccccc12)n1cccn1

>  <inhibition>
0% (inactive)

$$$$
>  <compound>
COc1ccc(C(=O)Nc2ccc(Cl)c(Cl)c2)c(OC)n1

>  <inhibition>
0% (inactive)

$$$$
>  <compound>
COc1ccccc1CNC(=O)N[C@@H](Cc1ccccc1)C(=O)O

>  <inhibition>
6% (inactive)

$$$$
>  <compound>
CC1CN(Cc2nc3c(c(=O)[nH]c(=O)n3C)n2CC(N)=O)CC(C)O1 (configuration not stated)

>  <inhibition>
4% (inactive)

$$$$
>  <compound>
COc1cccc(-c2cc3nc4c(c(N5CCC6(CC5)OCCO6)n3n2)CCCC4)c1

>  <inhibition>
0% (inactive)

$$$$

For every listed record, write down its inhibition.
1. CC(=O)OC1c2ccccc2C(=O)N1c1ccccc1C (configuration not stated)
2. O=C(NCc1ccccc1)c1ccc(OC2CSC2)cc1
3. CN(C)S(=O)(=O)Nc1ccccc1C(N)=O
4. Cc1ccc(NCc2nnc(SCC(=O)NCc3ccco3)n2CC2CCCO2)cc1Cl (configuration not stated)
5. CC(C)c1nc(N2CCN(C(=O)c3ccco3)CC2)c2c3c(sc2n1)CCCC3
6. CCOC(=O)CNC(=O)Nc1nnc(-c2ccc(OCC)cc2)o1
7. CCc1cn([C@H]2C[C@H](O)[C@@H](CO)O2)c(=O)[nH]c1=O
8. CSC1=C(C#N)C(C)CC(=O)N1 (configuration not stated)

1. 1% (inactive)
2. 1% (inactive)
3. 0% (inactive)
4. 3% (inactive)
5. 1% (inactive)
6. 5% (inactive)
7. 0% (inactive)
8. 0% (inactive)

For every listed record, write down its inhibition.
1. COc1ccc(S(=O)(=O)Nc2ccc3c(c2)OCO3)cc1Cl
2. COc1ccc2c(c1)[nH]c1c(=O)n(CCN(C)C)cnc12
3. CCOC(=O)c1c(-c2ccc(C)o2)csc1NC(=O)COC(=O)c1cccs1
4. COC(=O)Nc1sc2c(c1C(=O)N1CCOCC1)CCC(C)C2 (configuration not stated)
5. O=C(O)CCc1ccc(-c2ccc(F)cc2)n1CCC(=O)O
6. COc1ccc(CCNC(=O)c2cc3sc(Cl)cc3n2C)cc1OC

["5% (inactive)", "0% (inactive)", "5% (inactive)", "0% (inactive)", "0% (inactive)", "0% (inactive)"]

* * *

- subject.of.test: Pantothenate synthetase (Mycobacterium tuberculosis (strain ATCC 25618 / H37Rv)) (UniProt P9WIL5)
- Sequence (P9WIL5 whole entry, looked up): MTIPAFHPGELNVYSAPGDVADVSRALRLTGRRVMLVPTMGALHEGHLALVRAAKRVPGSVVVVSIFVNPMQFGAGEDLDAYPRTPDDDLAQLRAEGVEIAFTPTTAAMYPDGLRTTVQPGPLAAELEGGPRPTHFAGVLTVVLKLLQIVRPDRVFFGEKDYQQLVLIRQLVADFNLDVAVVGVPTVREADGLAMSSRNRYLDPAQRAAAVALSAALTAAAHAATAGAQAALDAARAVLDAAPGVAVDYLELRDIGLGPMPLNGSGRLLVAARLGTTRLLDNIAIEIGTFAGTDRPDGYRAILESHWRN
- protocol.description: Coupled enzyme confirmation of inhibitors against recombinant Mtb PanC (AID 375);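 also: 0% = full reaction with vehicle and 100% = no enzyme background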
- condition.label: coupled enzyme assay; at 10 µM, hits give high values
Exercise: for every item that follows, state its recorded inhibition.
Numbers only, in %.

Worked cases, inhibition given:
>  <molecule>
Cn1c(=O)c(=O)n(C)c2cc(S(=O)(=O)N3CCCCC3)ccc21

>  <reported.property>
inhibition

>  <measured.result>
14

$$$$
>  <molecule>
COC(=O)Cc1c(C)nc2nc[nH]n2c1=O

>  <reported.property>
inhibition

>  <measured.result>
0

$$$$
>  <molecule>
Cc1cccc(NC(=O)COc2ccc(Br)cc2)n1

>  <reported.property>
inhibition

>  <measured.result>
0

$$$$
>  <molecule>
Cc1c(/C(O)=C2/C(=O)C(=O)N(CCN3CCOCC3)C2c2cccnc2)cnn1-c1ccccc1 (stereo unspecified)

>  <reported.property>
inhibition

>  <measured.result>
1

$$$$

For every listed record, write down its inhibition.
1. CCOC(=O)N1CCC(NC(=O)CCN2C(=O)COc3ccccc32)CC1
2. CCN(CC)CCCC1(CN)OCCc2ccccc21 (stereo unspecified)

0
0
